Item-by-item account of T/C
Tested on: P388 leukemia ip, CD2F1 mice, survival T/C
Test Name: NCI In Vivo Anticancer Drug Screen. Data for tumor model P388 Leukemia (intraperitoneal) in CD2F1 (CDF1) mice
Reported Conditions: endpoint: median survival time; dose: 50.0 mg/kg/injection; schedule: Q01DX001 (ip); vehicle: Klucel (hydroxypropylcellulose) (HPC); higher = longer survival
Toxic doses and inconclusive results are not listed.

Solved entries (count: 4):
Q. // Input: O=C1C(Cl)=C(Cl)C(Cl)(Cl)C(Cl)=C1Cl . Output its T/C only.
A. 93 % of control

Q. Indicate its recorded T/C; the compound in question is O=c1[nH][nH]c(=O)n1/N=C\c1ccccc1O
A. 100 % of control

Q. Check the records and state T/C for CC1(C)C[C@@]2(F)C(=O)NC(=O)N[C@@H]12
A. 99 % of control

Q. State its T/C: CCOP(O)(=S)OCC.[Y]
A. 90 % of control

Next:
Q. Item O=C1C=CC2(C=C1)CCCCC2 : provide T/C
A. 91 % of control

====

Tested on: P388 leukemia ip, CD2F1 mice, survival T/C
Test Name: NCI In Vivo Anticancer Drug Screen. Data for tumor model P388 Leukemia (intraperitoneal) in CD2F1 (CDF1) mice
Reported Conditions: endpoint: median survival time; dose: 240.0 mg/kg/injection; schedule: Q01DX005 (ip); vehicle: saline with Tween-80; higher = longer survival
Toxic doses and inconclusive results are not listed.
Quick reference: T/C of the listed items.

Reference set (4 entries):
Q. With P388 leukemia ip, CD2F1 mice, survival T/C as the test system, provide measured T/C for this molecule: CC(=O)N(c1ccncc1)c1ccc([N+](=O)[O-])cc1
A. 88 % of control

Q. Please tell me the measured T/C for O=CNc1ccc(C(=O)O)c(O)c1 ; system: P388 leukemia ip, CD2F1 mice, survival T/C.
A. 90 % of control

Q. Find T/C for COc1ccc2c(=O)c(Cc3ccccc3)coc2c1 on P388 leukemia ip, CD2F1 mice, survival T/C and write it down.
A. 100 % of control

Q. Please report T/C with P388 leukemia ip, CD2F1 mice, survival T/C for item COC(=O)c1nnn(-c2ccc(Cl)cc2C)c1N .
A. 91 % of control

Next, consider the following molecule.
Q. Give P388 leukemia ip, CD2F1 mice, survival T/C T/C for the following molecule: CC1(C)COC(c2cccc3c2C2C=CC3O2)=N1 (stereo not given)
A. 108 % of control

====

Listed below: T/C values for each entry.
System: P388 leukemia ip, CD2F1 mice, survival T/C
Test Name: NCI In Vivo Anticancer Drug Screen. Data for tumor model P388 Leukemia (intraperitoneal) in CD2F1 (CDF1) mice
Reported Conditions: endpoint: median survival time; dose: 5.0 mg/kg/injection; schedule: Q01DX009 (ip); vehicle: saline with Tween-80; higher = longer survival
Procedure: The antitumor activity of compounds was measured in mice bearing transplantable tumors. Survival or tumor size were measured and the results are expressed as the measurement made in the treated group (T) divided by the measurement made in the vehicle treated control group (C). The tumor model used in this assay is P388 Leukemia (intraperitoneal) in CD2F1 (CDF1) mice
Toxic doses and inconclusive results are not listed.

Q. Send back P388 leukemia ip, CD2F1 mice, survival T/C T/C of CCC[CH2][Pb]([Cl])([CH2]CCC)[CH2]CCC only.
A. 107 % of control

Q. Retrieve T/C on P388 leukemia ip, CD2F1 mice, survival T/C; query Nc1ccc(Cn2ccc3c4c(N)nc(N)nc4ccc32)cc1
A. 121 % of control

Q. Report value only: T/C, P388 leukemia ip, CD2F1 mice, survival T/C, COC(=O)C1(C)CCCC2(C)c3cc(OC)ccc3C3(CC12)OCCS3 (centres undefined)
A. 98 % of control

Others:
Q. Enter recorded T/C with P388 leukemia ip, CD2F1 mice, survival T/C for COc1ccc(Cc2cc3c(cc2OC)OCO3)cc1 here.
A. 99 % of control
